System: Leishmania donovani
Test: Antileishmanial activity against Leishmania donovani PP75 promastigotes
Format: functional, organism-based
QUANTITY_KIND: IC50 (µg/mL)

molecule="C=C(C)C(O)Cc1cc(C(=O)O)cc(CC=C(C)C)c1O (racemic)" value_unit=µg/mL readout_number=67.3

1. CC(C)=CCc1cc(C(=O)O)cc(CC=C(C)C)c1O
2. C=C(C)C(O)Cc1cc(C(=O)OC)cc(O)c1O (racemic)
3. COC(=O)c1cc(O)c(O)c(CC=C(C)C)c1
Lookup: List from greatest to least IC50. // respond by listing labels in the order requested
Found: 2, 1, 3

###

Tested on: Leishmania donovani
Experiment: Antileishmanial activity against Leishmania donovani PP75 promastigotes
Type: functional, organism-based
QUANTITY_KIND: IC50 (µg/mL)

compound=COC(=O)c1ccc(O)c(CC=C(C)C)c1 quantity_kind=IC50 readout_number=62.5
compound="C=C(C)C(O)Cc1cc(C(=O)OC)ccc1O (stereo not drawn)" quantity_kind=IC50 readout_number=86.9
